- STUDY SYSTEM: Atrial natriuretic peptide receptor 1 (Homo sapiens, UniProt P16066)
- Sequence (P16066 whole entry): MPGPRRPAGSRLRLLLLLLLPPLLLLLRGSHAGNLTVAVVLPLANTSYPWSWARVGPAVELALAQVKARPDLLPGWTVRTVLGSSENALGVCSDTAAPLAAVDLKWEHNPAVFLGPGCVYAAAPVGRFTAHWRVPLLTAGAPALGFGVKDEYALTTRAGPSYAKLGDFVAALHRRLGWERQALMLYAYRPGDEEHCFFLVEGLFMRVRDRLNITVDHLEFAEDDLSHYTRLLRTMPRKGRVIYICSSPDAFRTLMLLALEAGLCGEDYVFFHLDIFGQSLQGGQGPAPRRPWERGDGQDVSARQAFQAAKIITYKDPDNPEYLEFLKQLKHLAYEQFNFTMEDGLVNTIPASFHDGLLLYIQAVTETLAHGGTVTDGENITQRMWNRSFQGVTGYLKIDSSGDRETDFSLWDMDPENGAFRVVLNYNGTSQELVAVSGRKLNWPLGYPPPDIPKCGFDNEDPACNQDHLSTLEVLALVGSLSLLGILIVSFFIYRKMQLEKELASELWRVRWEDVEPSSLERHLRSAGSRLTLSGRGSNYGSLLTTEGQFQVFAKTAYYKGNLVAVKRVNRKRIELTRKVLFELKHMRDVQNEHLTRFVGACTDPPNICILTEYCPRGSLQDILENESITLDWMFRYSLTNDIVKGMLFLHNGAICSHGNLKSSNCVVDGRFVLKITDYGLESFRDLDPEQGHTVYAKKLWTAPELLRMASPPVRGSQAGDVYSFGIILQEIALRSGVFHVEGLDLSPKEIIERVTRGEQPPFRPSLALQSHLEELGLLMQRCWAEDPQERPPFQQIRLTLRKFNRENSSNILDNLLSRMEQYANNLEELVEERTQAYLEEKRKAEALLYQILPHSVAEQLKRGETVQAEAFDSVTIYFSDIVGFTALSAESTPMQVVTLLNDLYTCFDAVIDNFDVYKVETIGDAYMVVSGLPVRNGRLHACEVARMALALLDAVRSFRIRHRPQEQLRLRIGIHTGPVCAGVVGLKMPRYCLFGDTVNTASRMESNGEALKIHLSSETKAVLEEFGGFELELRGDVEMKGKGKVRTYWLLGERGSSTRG
- EXPERIMENT SUMMARY: Agonist activity at human NPR-A expressed in CHO cells assessed as increase in cGMP accumulation after 30 mins by radioimmunoassay
QUANTITY: pEC50
Field pEC50 (float): negative decimal logarithm of the concentration in molar.

# lookup: pEC50 of CC(C)NC(=O)N[C@H]1CC[C@@H](Nc2nc(N[C@H](C)CO)nc3ccc(-c4cccc(F)c4)cc23)CC1
6.49

# lookup: pEC50 of C[C@H](CO)Nc1nc(N[C@H]2CC[C@@H](NC(=O)NC3CC3)CC2)c2cc(-c3cccc(F)c3)ccc2n1
6.48

# lookup: pEC50 of COC[C@@H](C)Nc1nc(N[C@H]2CC[C@@H](NC(=O)NC(C)C)CC2)c2nc(-c3cccc(F)c3)ccc2n1
5.40

# lookup: pEC50 of CC(C)[C@H](CO)NC(=O)N[C@H]1CC[C@@H](Nc2nc(N[C@H](C)CO)nc3ccc(-c4cccc(F)c4)cc23)CC1
7.15

# lookup: pEC50 of COC[C@@H](C)Nc1nc(N[C@H]2CC[C@@H](NC(=O)NC3CC3)CC2)c2cc(-c3cccc(F)c3)ccc2n1
6.47

# lookup: pEC50 of CC(C)[C@H](CO)NC(=O)N[C@H]1CC[C@@H](Nc2nc(N[C@H](C)CO)nc3cnc(-c4cccc(F)c4)cc23)CC1
6.21

# lookup: pEC50 of COC[C@H](C)Nc1nc(N[C@H]2CC[C@@H](NC(=O)NC3CC3)CC2)c2cc(-c3cccc(F)c3)ccc2n1
6.07

# lookup: pEC50 of COC[C@@H](C)Nc1nc(N[C@H]2CC[C@@H](NC(=O)NC(C)C)CC2)c2cc(-c3cccc(F)c3)ccc2n1
6.70

# lookup: pEC50 of C[C@H](CO)Nc1nc(N[C@H]2CC[C@H](NC(=O)N3CC(O)C3)CC2)c2cc(-c3cccc(F)c3)ccc2n1
6.38

# lookup: pEC50 of C[C@H](CO)Nc1nc(N[C@H]2CC[C@@H](NC(=O)NC3(CO)CCCC3)CC2)c2cc(-c3cccc(F)c3)ccc2n1
7.11

# lookup: pEC50 of CC(C)N[C@H]1C[C@H](C(=O)N[C@H]2CC[C@H](Nc3nc(N[C@H](C)CO)nc4ccc(-c5ccccc5)cc34)CC2)C1
6.49

# lookup: pEC50 of CC(C)[C@@H](CO)NC(=O)N[C@H]1CC[C@@H](Nc2nc(N[C@H](C)CO)nc3ccc(-c4cccc(F)c4)cc23)CC1
7.39

# lookup: pEC50 of COCCNc1nc(N[C@H]2CC[C@@H](NC(=O)NC(C)C)CC2)c2cc(-c3cccc(F)c3)ccc2n1
6.42

# lookup: pEC50 of CC(C)Nc1nc(N[C@H]2CC[C@@H](NC(=O)N[C@@H](CO)C(C)C)CC2)c2cc(-c3cccc(F)c3)ccc2n1
6.00
